Reported values of diameter of the inhibition zone (DIZ) for individual entries
# System: Escherichia coli
# testName: Antibacterial activity against Escherichia coli K-12 assessed as zone of inhibition by disk-plate assay
# Format: functional

molecule	diameter of the inhibition zone (DIZ) (mm)
COC1=C(C)C(=O)c2c(c(COC(N)=O)c3n2C[C@@H](N)[C@H]3O)C1=O	0
COC1=C(C)C(=O)c2c(c(COC(N)=O)c3n2C[C@@H](NC(C)=O)[C@H]3OC(C)=O)C1=O	0
COC1=C(C)C(=O)c2c(c(COC(N)=O)c3n2CC[C@H]3O)C1=O	0
COC1=C(C)C(=O)C2=C(C1=O)[C@@H](COC(N)=O)[C@@]1(OC)[C@H]3N[C@H]3CN21	8
COC1=C(C)C(=O)c2c(c(COC(N)=O)c3n2CC[C@H]3OC(C)=O)C1=O	0
CNC(=O)OCc1c2c(n3c1[C@H](NC(C)=O)[C@H](OC(C)=O)C3)C(=O)C(C)=C(OC)C2=O (relative stereo)	0

====

# System: Klebsiella pneumoniae
# testName: Antibacterial activity against Klebsiella pneumoniae assessed as zone of inhibition by disk-plate assay
# Assay type: functional
recordedMetric: diameter of the inhibition zone (DIZ)

molecule	recordedMetric	result
COC1=C(C)C(=O)c2c(c(COC(N)=O)c3n2C[C@@H](N)[C@H]3O)C1=O	diameter of the inhibition zone (DIZ)	0 mm
COC1=C(C)C(=O)c2c(c(COC(N)=O)c3n2CC[C@H]3O)C1=O	diameter of the inhibition zone (DIZ)	0 mm
COC1=C(C)C(=O)C2=C(C1=O)[C@@H](COC(N)=O)[C@@]1(OC)[C@H]3N[C@H]3CN21	diameter of the inhibition zone (DIZ)	16 mm
CNC(=O)OCc1c2c(n3c1[C@H](NC(C)=O)[C@H](OC(C)=O)C3)C(=O)C(C)=C(OC)C2=O (relative stereo)	diameter of the inhibition zone (DIZ)	0 mm
COC1=C(C)C(=O)c2c(c(COC(N)=O)c3n2C[C@@H](NC(C)=O)[C@H]3OC(C)=O)C1=O	diameter of the inhibition zone (DIZ)	0 mm
COC1=C(C)C(=O)c2c(c(COC(N)=O)c3n2CC[C@H]3OC(C)=O)C1=O	diameter of the inhibition zone (DIZ)	0 mm
